Tgt: human GLP-1R (human, UniProt P43220 24-463)
Experimental protocol: cell-based or functional assay
Square brackets hold non-standard residues; d marks the D form. Side chains are listed from the residue outwards. Phe(2-F) = N[C@@H](Cc1ccccc1F)C(=O)O; αMeF = C[C@](N)(Cc1ccccc1)C(=O)O; Iva = CC[C@](C)(N)C(=O)O; Aib = CC(C)(N)C(=O)O
Quantity measured: Agonist activity (EC50), Cre-luc reporter assay (nM)

I = Me-Y[Aib]EGT[αMeF]TSDK([Gly-Gly-Gly-Gly-Pal])AI[Aib]LEKQRQ[Iva]EFVRHLLNK[Aib]TRQRY-NH2
II = H-Y[Aib]EGT[αMeF]TSDK([Gly-Gly-Gly-Gly-Pal])[Aib]I[Aib]LDKQRQ[Iva]EFVRHLLNK[Aib]TRQR[Phe(2-F)]-NH2
Asked: Of I and II , which carries the smaller reported Agonist activity (EC50), Cre-luc reporter assay figure? State the label of the item chosen.
Given back: I
